Target: HLA-B*2705 expressed on C1R-neo cells (human, UniProt P01889 25-362; P61769 21-119)
Experiment: ECL cell binding, C1R-neo B*2705 cells, pH 7.2; separate day
readout: max RLU (RLU)
Express the result in RLU but write the number alone.

Q. Which value of max RLU has been reported for H4H2499N11 (antibody, V domains shown) VH: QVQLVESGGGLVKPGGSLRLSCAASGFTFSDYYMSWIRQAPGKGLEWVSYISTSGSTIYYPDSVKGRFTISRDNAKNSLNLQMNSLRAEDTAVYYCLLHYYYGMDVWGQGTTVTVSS VL: EIVLTQSPATLSLSPGERAPLSCRASQSVSSYLAWYQQKPGQPPRLLIYDASNRATGIPARFSGSGSGTDFTLTISSLEPEDFAVYYCQHRHNWPWHFGQGTKVEIK in the records?
A. 14400

Q. Fill in the blank: the reported max RLU of H4H2499N4 (antibody, V domains shown) VH: QVQLVESGGGLVKPGGSLRLSCAASGFTFSDHYMSWIRQAPGKGLEWVSYISHSGSTIYYPDSVKGRFTISRDNAKNSLNLQMNSLRAEDTAVYYCLLHYYYGMDVWGQGTTVTVSS VL: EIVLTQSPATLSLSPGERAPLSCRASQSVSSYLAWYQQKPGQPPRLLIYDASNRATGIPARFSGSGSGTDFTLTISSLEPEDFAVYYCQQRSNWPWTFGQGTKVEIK is ____.
A. 14200

Q. So what does the record say about max RLU for H4H2499N21 (antibody, V domains shown) VH: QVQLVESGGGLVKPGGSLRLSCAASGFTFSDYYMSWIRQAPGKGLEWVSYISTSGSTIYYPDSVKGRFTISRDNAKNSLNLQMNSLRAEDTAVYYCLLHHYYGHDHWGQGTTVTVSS VL: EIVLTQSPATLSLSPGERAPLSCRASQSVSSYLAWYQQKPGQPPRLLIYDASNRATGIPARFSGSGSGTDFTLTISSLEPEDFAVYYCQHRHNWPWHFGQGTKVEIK ?
A. 13200
